tested on: Escherichia coli TOP10; assay: shrunken log2 fold change of peptide-encoding DNA abundance (4.5 h post-induction vs induction); higher = less antimicrobial activity (less host growth inhibition); conditions: time post-induction: 4.5 h; library: site-saturation at positions 5, 18, 19, 20
Readout name: shrunken log2 fold change
Keep it simple and answer with nothing but the number.

>  <Sequence string>
RRIRSRPPRLPRPRPRPVTIPRP

>  <Readout name>
shrunken log2 fold change

>  <Reported value>
-0.373

$$$$
>  <Sequence string>
RRIRNRPPRLPRPRPRPCEKPRP

>  <Readout name>
shrunken log2 fold change

>  <Reported value>
-0.0478

$$$$
>  <Sequence string>
RRIRFRPPRLPRPRPRPMPGPRP

>  <Readout name>
shrunken log2 fold change

>  <Reported value>
-0.0263

$$$$
>  <Sequence string>
RRIRGRPPRLPRPRPRPQDIPRP

>  <Readout name>
shrunken log2 fold change

>  <Reported value>
-0.398

$$$$
>  <Sequence string>
RRIRCRPPRLPRPRPRPHGHPRP

>  <Readout name>
shrunken log2 fold change

>  <Reported value>
-0.167

$$$$

Prompt: Tell me shrunken log2 fold change reported for "RRIRLRPPRLPRPRPRPPPSPRP"
Response: 1.28

Prompt: Tell me shrunken log2 fold change reported for "RRIRWRPPRLPRPRPRPTMQPRP"
Response: 0.13

* * *

system: Escherichia coli TOP10; test: shrunken log2 fold change of peptide-encoding DNA abundance (4.5 h post-induction vs induction); higher = less antimicrobial activity (less host growth inhibition); settings: time post-induction: 4.5 h; library: site-saturation at positions 5, 18, 19, 20
Known shrunken log2 fold change of a selection of sequences

Use these answered entries as a reference point.
>  <Sequence string>
RRIRDRPPRLPRPRPRPKLDPRP

>  <Readout name>
shrunken log2 fold change

>  <Reported value>
0.0966

$$$$
>  <Sequence string>
RRIRERPPRLPRPRPRPMQEPRP

>  <Readout name>
shrunken log2 fold change

>  <Reported value>
0.216

$$$$
>  <Sequence string>
RRIRARPPRLPRPRPRPSLVPRP

>  <Readout name>
shrunken log2 fold change

>  <Reported value>
0.413

$$$$
>  <Sequence string>
RRIRPRPPRLPRPRPRPVDGPRP

>  <Readout name>
shrunken log2 fold change

>  <Reported value>
0.0909

$$$$
>  <Sequence string>
RRIRCRPPRLPRPRPRPKYWPRP

>  <Readout name>
shrunken log2 fold change

>  <Reported value>
0.22

$$$$
>  <Sequence string>
RRIRIRPPRLPRPRPRPVIGPRP

>  <Readout name>
shrunken log2 fold change

>  <Reported value>
-0.727

$$$$

Prompt: Tell me shrunken log2 fold change reported for "RRIRCRPPRLPRPRPRPSHWPRP"
Response: -0.204

Prompt: Tell me shrunken log2 fold change reported for "RRIRPRPPRLPRPRPRPIVEPRP"
Response: 0.233

Prompt: Tell me shrunken log2 fold change reported for "RRIRLRPPRLPRPRPRPGCPPRP"
Response: 0.0643

Prompt: Tell me shrunken log2 fold change reported for "RRIRTRPPRLPRPRPRPFQHPRP"
Response: -0.214

Prompt: Tell me shrunken log2 fold change reported for "RRIRWRPPRLPRPRPRPGDYPRP"
Response: 0.0468

Prompt: Tell me shrunken log2 fold change reported for "RRIRQRPPRLPRPRPRPFPRPRP"
Response: -0.122

Prompt: Tell me shrunken log2 fold change reported for "RRIRMRPPRLPRPRPRPSFGPRP"
Response: 0.0121

* * *

Known shrunken log2 fold change of a selection of sequences
test system: Escherichia coli TOP10; experiment: shrunken log2 fold change of peptide-encoding DNA abundance (4.5 h post-induction vs induction); higher = less antimicrobial activity (less host growth inhibition); details: time post-induction: 4.5 h; library: site-saturation at positions 5, 18, 19, 20
Keep it simple and answer with nothing but the number.

Use these answered entries as a reference point.
>  <Sequence string>
RRIRDRPPRLPRPRPRPPLLPRP

>  <shrunken log2 fold change>
0.252

$$$$
>  <Sequence string>
RRIRRRPPRLPRPRPRPELRPRP

>  <shrunken log2 fold change>
0.463

$$$$

Prompt: Tell me shrunken log2 fold change reported for "RRIRPRPPRLPRPRPRPFMIPRP"
Response: 0.471

Prompt: Tell me shrunken log2 fold change reported for "RRIRIRPPRLPRPRPRPAWQPRP"
Response: 0.342

Prompt: Tell me shrunken log2 fold change reported for "RRIRFRPPRLPRPRPRPLNEPRP"
Response: -0.226

Prompt: Tell me shrunken log2 fold change reported for "RRIRQRPPRLPRPRPRPPERPRP"
Response: 0.0424

Prompt: Tell me shrunken log2 fold change reported for "RRIRQRPPRLPRPRPRPDHQPRP"
Response: -0.126

* * *

test system: Escherichia coli TOP10; assay: shrunken log2 fold change of peptide-encoding DNA abundance (4.5 h post-induction vs induction); higher = less antimicrobial activity (less host growth inhibition); settings: time post-induction: 4.5 h; library: site-saturation at positions 5, 18, 19, 20
Readout name: shrunken log2 fold change
Keep it simple and answer with nothing but the number.

Use these answered entries as a reference point.
>  <Sequence string>
RRIRHRPPRLPRPRPRPAAKPRP

>  <shrunken log2 fold change>
0.218

$$$$
>  <Sequence string>
RRIRGRPPRLPRPRPRPKDSPRP

>  <shrunken log2 fold change>
0.244

$$$$
>  <Sequence string>
RRIRFRPPRLPRPRPRPNMFPRP

>  <shrunken log2 fold change>
-0.259

$$$$

Prompt: Tell me shrunken log2 fold change reported for "RRIRFRPPRLPRPRPRPWISPRP"
Response: -0.456

* * *

test system: Escherichia coli TOP10; test: shrunken log2 fold change of peptide-encoding DNA abundance (4.5 h post-induction vs induction); higher = less antimicrobial activity (less host growth inhibition); settings: time post-induction: 4.5 h; library: site-saturation at positions 5, 18, 19, 20
Note: every record was labeled by where its shrunken log2 fold change sits among label 0 = under -0.1, label 1 = from -0.1 up to 0.08, label 2 = 0.08 and over

As a guide, the following entries are already answered.
>  <Sequence string>
RRIRCRPPRLPRPRPRPNDDPRP

>  <Class name>
label 0

$$$$
>  <Sequence string>
RRIRVRPPRLPRPRPRPMDHPRP

>  <Class name>
label 0

$$$$
>  <Sequence string>
RRIRQRPPRLPRPRPRPYVWPRP

>  <Class name>
label 1

$$$$
>  <Sequence string>
RRIRNRPPRLPRPRPRPLPGPRP

>  <Class name>
label 2

$$$$
>  <Sequence string>
RRIRMRPPRLPRPRPRPFHYPRP

>  <Class name>
label 0

$$$$

Prompt: Note: place this sequence into its band. Item: "RRIRERPPRLPRPRPRPYTMPRP"
Response: label 1

Prompt: Note: place this sequence into its band. Item: "RRIRMRPPRLPRPRPRPLGRPRP"
Response: label 2

Prompt: Note: place this sequence into its band. Item: "RRIRIRPPRLPRPRPRPCYRPRP"
Response: label 0

Prompt: Note: place this sequence into its band. Item: "RRIRPRPPRLPRPRPRPNGHPRP"
Response: label 1

Prompt: Note: place this sequence into its band. Item: "RRIRERPPRLPRPRPRPEFQPRP"
Response: label 1

Prompt: Note: place this sequence into its band. Item: "RRIRGRPPRLPRPRPRPMHVPRP"
Response: label 1

Prompt: Note: place this sequence into its band. Item: "RRIRVRPPRLPRPRPRPDNGPRP"
Response: label 1

* * *

Known shrunken log2 fold change of a selection of sequences
system: Escherichia coli TOP10; assay: shrunken log2 fold change of peptide-encoding DNA abundance (4.5 h post-induction vs induction); higher = less antimicrobial activity (less host growth inhibition); settings: time post-induction: 4.5 h; library: site-saturation at positions 5, 18, 19, 20;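 note: peptides expressed intracellularly from a pBAD plasmid library in pooled LB shake-flask culture, induced with 0.3% L-arabinose, DNA abundance read by NGS, three biological replicates, DESeq2 with apeglm shrinkage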
Keep it simple and answer with nothing but the number.

Use these answered entries as a reference point.
>  <Sequence string>
RRIRWRPPRLPRPRPRPLHTPRP

>  <shrunken log2 fold change>
0.0467

$$$$
>  <Sequence string>
RRIRNRPPRLPRPRPRPNVDPRP

>  <shrunken log2 fold change>
0.112

$$$$
>  <Sequence string>
RRIRCRPPRLPRPRPRPSIMPRP

>  <shrunken log2 fold change>
-0.684

$$$$
>  <Sequence string>
RRIRWRPPRLPRPRPRPPRNPRP

>  <shrunken log2 fold change>
0.794

$$$$
>  <Sequence string>
RRIRFRPPRLPRPRPRPVLSPRP

>  <shrunken log2 fold change>
-0.0531

$$$$
>  <Sequence string>
RRIRGRPPRLPRPRPRPSMHPRP

>  <shrunken log2 fold change>
0.421

$$$$

Prompt: Tell me shrunken log2 fold change reported for "RRIRGRPPRLPRPRPRPHKAPRP"
Response: -0.0636

Prompt: Tell me shrunken log2 fold change reported for "RRIRNRPPRLPRPRPRPRSIPRP"
Response: -0.288

Prompt: Tell me shrunken log2 fold change reported for "RRIRYRPPRLPRPRPRPIIAPRP"
Response: -1.18

Prompt: Tell me shrunken log2 fold change reported for "RRIRGRPPRLPRPRPRPICHPRP"
Response: 0.378

Prompt: Tell me shrunken log2 fold change reported for "RRIRERPPRLPRPRPRPVNKPRP"
Response: -0.31

Prompt: Tell me shrunken log2 fold change reported for "RRIRERPPRLPRPRPRPLFQPRP"
Response: -0.271

Prompt: Tell me shrunken log2 fold change reported for "RRIRNRPPRLPRPRPRPPKIPRP"
Response: 0.0999

Prompt: Tell me shrunken log2 fold change reported for "RRIRFRPPRLPRPRPRPVSWPRP"
Response: 0.44

Prompt: Tell me shrunken log2 fold change reported for "RRIRCRPPRLPRPRPRPYCFPRP"
Response: -0.783
